Property: IC50; scope: individual compounds
biological target: EGFR L858R/T790M/C797S (Homo sapiens, UniProt P00533, C797S/L858R/T790M); test: Biochemical EGFR kinase inhibition assay (Lance Ultra TR-FRET), triple mutant L858R/T790M/C797S; details: Km ATP; read-out: IC50 L858R/T790M/C797S (nM), Km ATP
Sequence (P00533 25-1210 T790M/C797S/L858R): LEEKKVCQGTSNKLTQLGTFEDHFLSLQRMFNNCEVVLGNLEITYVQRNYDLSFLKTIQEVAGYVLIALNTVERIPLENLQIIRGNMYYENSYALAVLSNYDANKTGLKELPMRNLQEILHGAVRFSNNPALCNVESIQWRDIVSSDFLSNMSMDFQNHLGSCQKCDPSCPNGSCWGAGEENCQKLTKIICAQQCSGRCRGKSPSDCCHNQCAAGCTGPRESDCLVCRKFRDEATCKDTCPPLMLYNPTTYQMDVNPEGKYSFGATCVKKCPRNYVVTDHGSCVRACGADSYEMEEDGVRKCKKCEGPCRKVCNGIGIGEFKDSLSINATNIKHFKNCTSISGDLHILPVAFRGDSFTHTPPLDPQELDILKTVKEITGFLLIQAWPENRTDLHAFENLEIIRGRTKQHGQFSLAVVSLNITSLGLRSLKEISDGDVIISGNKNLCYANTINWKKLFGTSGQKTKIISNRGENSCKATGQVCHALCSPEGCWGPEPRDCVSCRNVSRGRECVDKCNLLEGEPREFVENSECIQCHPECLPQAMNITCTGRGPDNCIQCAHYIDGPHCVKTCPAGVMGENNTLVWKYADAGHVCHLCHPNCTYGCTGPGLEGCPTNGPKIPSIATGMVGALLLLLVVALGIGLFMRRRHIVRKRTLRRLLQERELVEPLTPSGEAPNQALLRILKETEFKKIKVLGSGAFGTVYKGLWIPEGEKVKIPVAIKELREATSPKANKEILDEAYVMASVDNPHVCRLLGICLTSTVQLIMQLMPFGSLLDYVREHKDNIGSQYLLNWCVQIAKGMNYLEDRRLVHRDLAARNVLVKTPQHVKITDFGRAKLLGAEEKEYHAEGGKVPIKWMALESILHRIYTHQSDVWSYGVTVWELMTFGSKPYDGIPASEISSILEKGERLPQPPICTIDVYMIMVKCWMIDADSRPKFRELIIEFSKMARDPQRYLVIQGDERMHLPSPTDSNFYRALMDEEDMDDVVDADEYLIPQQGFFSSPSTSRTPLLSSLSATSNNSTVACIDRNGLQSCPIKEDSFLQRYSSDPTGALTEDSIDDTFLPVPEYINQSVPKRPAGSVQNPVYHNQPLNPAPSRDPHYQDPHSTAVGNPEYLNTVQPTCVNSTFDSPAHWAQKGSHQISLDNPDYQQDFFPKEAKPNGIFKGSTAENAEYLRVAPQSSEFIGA
Just the number please, in nM, no unit attached.

These solved cases illustrate the format of a correct answer.
compound: O=S(=O)(C1CC1)n1cc(-c2nccc(Nc3cc(N[C@H]4CC[C@@H](CO)CC4)c(C#Cc4cnn(CC(F)(F)F)c4)cn3)n2)cn1 [Example 340]
assay system: EGFR L858R/T790M/C797S (Homo sapiens, UniProt P00533, C797S/L858R/T790M)
IC50 [nM]: 0.7
--
compound: O=S(=O)(C1CC1)N1CCC(C#Cc2cnc(Nc3ccnc(-c4cnn(S(=O)(=O)C5CC5)c4)n3)cc2N[C@H]2CC[C@@H](CO)CC2)CC1 [Example 390]
assay system: EGFR L858R/T790M/C797S (Homo sapiens, UniProt P00533, C797S/L858R/T790M)
IC50 [nM]: 1.1
--
compound: CN(C)CCC1CCN(c2cc(Nc3ccnc(-c4cnn(S(=O)(=O)C5CC5)c4)n3)ncc2C#CC2CCO[C@H]2C(F)(F)F)CC1 (stereo partly shown) [Example 419]
assay system: EGFR L858R/T790M/C797S (Homo sapiens, UniProt P00533, C797S/L858R/T790M)
IC50 [nM]: 0.4
--
compound: O=S(=O)(C1CC1)n1cc(-c2nccc(Nc3cc(N4CCC5(CCCO5)CC4)c(C#Cc4ncc(CN5CCOCC5)cn4)cn3)n2)cn1 [Example 366]
assay system: EGFR L858R/T790M/C797S (Homo sapiens, UniProt P00533, C797S/L858R/T790M)
IC50 [nM]: 0.1
--
compound: CNCC1(F)CCN(c2cc(Nc3ccnc(-c4cnn(S(=O)(=O)C5CC5)c4)n3)ncc2C#Cc2cnn(C)c2)CC1 [Example 382]
assay system: EGFR L858R/T790M/C797S (Homo sapiens, UniProt P00533, C797S/L858R/T790M)
IC50 [nM]: 0.2
--
compound: O=S(=O)(C1CC1)n1cc(-c2nccc(Nc3cc(N4C[C@@H]5[C@@H](CO)[C@@H]5C4)c(C#Cc4cnn(C(F)(F)F)c4)cn3)n2)cn1 [Example 331]
assay system: EGFR L858R/T790M/C797S (Homo sapiens, UniProt P00533, C797S/L858R/T790M)
IC50 [nM]: 5
--
compound: O=C(c1ccc(C#Cc2cnc(Nc3ccnc(-c4cnn(S(=O)(=O)C5CC5)c4)n3)cc2NC[C@H]2CC[C@H](CO)CC2)cc1)N1CCC(O)CC1 [Example 443]
assay system: EGFR L858R/T790M/C797S (Homo sapiens, UniProt P00533, C797S/L858R/T790M)
IC50 [nM]: 1.2
--
compound: CC(C)(O)[C@H]1CC[C@@H](Nc2cc(Nc3ccnc(-c4cnn(S(=O)(=O)C5CC5)c4)n3)ncc2C#Cc2cnn(C(F)(F)F)c2)CC1 [Example 337]
assay system: EGFR L858R/T790M/C797S (Homo sapiens, UniProt P00533, C797S/L858R/T790M)
IC50 [nM]: 3.3

stdin: Given the entry O=S(=O)(C1CC1)n1cc(-c2nccc(Nc3cc(N[C@H]4CC[C@@H](O)CC4)c(C#Cc4cnn(CC(F)(F)F)c4)cn3)n2)cn1 [Example 339] , report its measured IC50.
stdout: 0.5

stdin: Given the entry CN1CCC(C#Cc2cnc(Nc3ccnc(-c4cnn(S(=O)(=O)C5CC5)c4)n3)cc2N2CCC3(CCCO3)CC2)C1 (stereo not shown) [Example 372] , report its measured IC50.
stdout: 0.1

stdin: Given the entry CN1CCN(Cc2ccc(C#Cc3cnc(Nc4ccnc(-c5cnn(S(=O)(=O)C6CC6)c5)n4)cc3N[C@H]3CC[C@]4(CCC(=O)N4)CC3)cc2)CC1 [Example 362] , report its measured IC50.
stdout: 0.1

stdin: Given the entry CC1(C#Cc2cnc(Nc3ccnc(-c4cnn(S(=O)(=O)C5CC5)c4)n3)cc2N2CCC(C)(CO)CC2)CC1 [Example 358] , report its measured IC50.
stdout: 0.7

stdin: Given the entry CS(=O)(=O)N1CCC(C#Cc2cnc(Nc3ccnc(-c4cnn(S(=O)(=O)C5CC5)c4)n3)cc2NC2CCC(CO)CC2)C1 (stereo not shown) [Example 397] , report its measured IC50.
stdout: 0.5

stdin: Given the entry O=S(=O)(C1CC1)N1CCC(C#Cc2cnc(Nc3ccnc(-c4cnn(S(=O)(=O)C5CC5)c4)n3)cc2NC2CCC(CO)CC2)C1 (stereo not shown) [Example 393] , report its measured IC50.
stdout: 0.4

stdin: Given the entry O=S(=O)(C1CC1)n1cc(-c2nccc(Nc3cc(NC4CCC(CO)CC4)c(C#CC4(F)CCOC4)cn3)n2)cn1 (stereo not shown) [Example 434] , report its measured IC50.
stdout: 0.2

stdin: Given the entry O=S(=O)(C1CC1)n1cc(-c2nccc(Nc3cc(N[C@H]4CC[C@@H](CO)CC4)c(C#CC4C[C@@H]5CC[C@@H]4O5)cn3)n2)cn1 (stereo partly shown) [Example 422] , report its measured IC50.
stdout: 0.4

stdin: Given the entry CC1(O)CCN(c2cc(Nc3ccnc(-c4cnn(S(=O)(=O)C5CC5)c4)n3)ncc2C#CC2CCS(=O)(=O)C2)CC1 (stereo not shown) [Example 429] , report its measured IC50.
stdout: 0.2

stdin: Given the entry CN(C)CCC1CCN(c2cc(Nc3ccnc(-c4cnn(S(=O)(=O)C5CC5)c4)n3)ncc2C#Cc2cnn(C(F)(F)F)c2)CC1 [Example 335] , report its measured IC50.
stdout: 0.2

stdin: Given the entry O=S(=O)(C1CC1)n1cc(-c2nccc(Nc3cc(N4CCC5(CCO5)CC4)c(C#Cc4ncc(CN5CCOCC5)cn4)cn3)n2)cn1 [Example 367] , report its measured IC50.
stdout: 0.1

stdin: Given the entry CC1(O)CCN(c2cc(Nc3ccnc(-c4cnn(S(=O)(=O)C5CC5)c4)n3)ncc2C#Cc2ccc(C(=O)N3CCC(O)CC3)cc2)CC1 [Example 442] , report its measured IC50.
stdout: 0.1

stdin: Given the entry O=S(=O)(C1CC1)n1cc(-c2nccc(Nc3cc(N[C@H]4CC[C@@H](CO)CC4)c(C#Cc4cnn(C(F)(F)F)c4)cn3)n2)cn1 [Example 336] , report its measured IC50.
stdout: 1.3

stdin: Given the entry CC1OCCC1C#Cc1cnc(Nc2ccnc(-c3cnn(S(=O)(=O)C4CC4)c3)n2)cc1N1CCC(C)(CO)CC1 (stereo not shown) [Example 438] , report its measured IC50.
stdout: 0.2

stdin: Given the entry CC(=O)C1CCN(c2cc(Nc3ccnc(-c4cnn(S(=O)(=O)C5CC5)c4)n3)ncc2C#Cc2cnn(C(F)(F)F)c2)CC1 [Example 334] , report its measured IC50.
stdout: 3.3

stdin: Given the entry COC1(O)CCN(c2cc(Nc3ccnc(-c4cnn(S(=O)(=O)C5CC5)c4)n3)ncc2C#Cc2ccc(CN3CCN(C)CC3)cc2)CC1 [Example 369] , report its measured IC50.
stdout: 0.3

stdin: Given the entry O=S(=O)(C1CC1)N1CCC(C#Cc2cnc(Nc3ccnc(-c4cnn(S(=O)(=O)C5CC5)c4)n3)cc2NC2CCC(O)CC2)C1 (stereo not shown) [Example 394] , report its measured IC50.
stdout: 0.2

Origin of measurements: patent US11981658B2
